FYI, the data here is from PubChem BioAssay.

- protocol summary: small molecules captured by biotinylated probe aFGF10 – biochemical, small-molecule microarray, fluorescence 635/667, stem cell growth factor project, primary screen (AID 1071);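 also: score merges 667 nm spot intensity and signal to noise from triplicate slides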
- experimental setup: higher = more signal
# reported composite z-score; entries follow

| molecule | composite z-score |
| --- | --- |
| COc1ccc(C(=O)Nc2ccc(CN3C(=O)[C@]4(O[C@H](CC(=O)N5CCC[C@H]5CO)[C@@H]([Si](C)(C)c5ccc(OC)cc5)[C@@H]4C)c4ccccc43)cc2)cc1 | 0.656 |

The reported value for `C=CCNC(=O)[C@@H]1[C@H]2C(=O)O[C@H](c3ccccc3)[C@H](c3ccccc3)N2[C@H](c2ccc(OCCO)cc2)[C@@]12C(=O)N(C(=O)OCCOC)c1ccc(C#CCC(C(=O)OC)C(=O)OC)cc12` in terms of composite z-score is 1.05

Lab note: measured composite z-score of `COCCCNC(=O)[C@]1(Cc2ccccc2)N=C(c2ccc(OCCCO)cc2)O[C@@H]1c1ccccc1CN=[N+]=[N-]` was 1.03

Lookup result for `C[N+](C)(C)CCCC[C@@H]1NC(=O)[C@@H]2C[C@H](C(=O)NCCCCCCNC(=O)CS)[C@H](c3ccc(O)cc3)N2C1=O` ; measured composite z-score: 0.0372

###

- protocol summary: growth effects on S. cerevisiae YJM789 – YJM789 clinical isolate, OD600, 24 h, basal, primary screen (AID 1089);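 also: growth of clinical yeast isolate S. cerevisiae YJM 789 seeded 1000 cells per well; test concentration not given here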
- experimental setup: higher = more signal, called active from +8 up or from −8 down
reported property: z-score
A bare number is all that is needed in reply.

Here is how some molecules turned out for z-score.
| molecule | z-score |
| --- | --- |
| COc1ccc(NC(=O)O[C@H]2[C@H](OC(=O)c3cc4ccccc4[nH]3)[C@@H](OC(=O)c3cc4ccccc4[nH]3)[C@@H](OC)O[C@@H]2CO)cc1 | -1.68 |
| C[N+](C)(C)CCCCCCNC(=O)[C@H]1C[C@H]2C(=O)N[C@@H](Cc3ccccc3)C(=O)N2[C@H]1c1cccc(OCCO)c1 | -0.776 |
| CC[C@@H]1C=C(C(=O)O)[C@H](c2cccc3ccccc23)N1S(=O)(=O)c1ccc(C)cc1 | -0.118 |

Note to self: z-score recorded for O=C1OCC=C[C@H]2OC34C=CCN(CCN5CCOCC5)C(=O)[C@H]3N(CCO)C(=O)[C@@H]4[C@@H]12 (stereo partly drawn) was -0.674

Entry under test: O=C1NC(=O)C2C1C=CC(C(O)c1ccc(I)cc1)N2Nc1ccccn1 (stereo not drawn) . Its z-score was -0.353

Entry `CC(C)C(=C=CC[C@H](O)c1ccc(CO)o1)CCO` ; z-score = -0.0662

response.value for `O=C(O)[C@@]1(CCS(=O)(=O)c2ccccc2)N=C(c2ccc(OCCCO)cc2)O[C@H]1c1ccccc1` (field: z-score) = -0.326

Reported z-score of `NC(=O)[C@@H]1[C@H]2C(=O)O[C@H](c3ccccc3)[C@H](c3ccccc3)N2[C@H](c2ccc(OCCO)cc2)[C@@]12C(=O)Nc1ccc(C#CC3=CCCCC3)cc12` : 0.529

###

- protocol summary: binders from COS7 lysate, DM2A8 probe, primary screen, torsin A project, cell lysate, small-molecule microarray, fluorescence 635/667 (AID 1065)
- experimental setup: higher = more signal, COS7 lysate expressing mutant human TOR1A
Output Condition met for composite z-score not less than 0.2; output Condition not met otherwise.

| compound | answer label |
| --- | --- |
| CC(c1ccccc1)C(O)C1C=CC2C(=O)N(C)C(=O)C2N1NC(=O)OC(C)(C)C (stereo not given) | Condition met |
| COCCOC(=O)N1C(=O)[C@@]2(c3cc(C#CCCO)ccc31)[C@H](c1ccc(O)cc1)N1[C@H](c3ccccc3)[C@H](c3ccccc3)OC(=O)[C@H]1[C@@H]2C(=O)N1CCN(c2ncccn2)CC1 | Condition met |

Task item: Is composite z-score at least 0.2? Consider `NCCCCCCNC(=O)[C@H]1C[C@H]2C(=O)N[C@@H](Cc3ccccc3)C(=O)N2[C@H]1c1cccc(OCCO)c1`
Reply: Condition met

Task item: Hi team, for `CN(C)CCCC[C@@H]1NC(=O)[C@H]2C[C@@H](C(=O)NCCCCCN)[C@@H](c3cccc(OCCO)c3)N2C1=O` , is the recorded composite z-score at or above 0.2?
Reply: Condition met

Task item: composite z-score >= 0.2 for `COCCCNC(=O)[C@@]1(Cc2ccccc2CN=[N+]=[N-])N=C(c2ccc(OCCCO)cc2)O[C@H]1c1ccccc1CN=[N+]=[N-]` ?
Reply: Condition met

Task item: Can `C=CCNC(=O)[C@H]1[C@@H]2C(=O)O[C@@H](c3ccccc3)[C@@H](c3ccccc3)N2[C@@H](c2ccc(OCCO)cc2)[C@]12C(=O)Nc1ccc(C#CCC(C(=O)OC)C(=O)OC)cc12` be said to have composite z-score at or above 0.2?
Reply: Condition met

Task item: Hello, I need to know if `COC(=O)c1c2oc(c1C(=O)OC)C(=O)NC1(CCCCC1)c1cn(nn1)C[C@H](Cc1ccccc1)NC(=O)N[C@H](CO)CC2` has measured composite z-score not below 0.2. Thanks!
Reply: Condition not met

Task item: hey, is composite z-score for this one >= 0.2? `CN(C)CCCCNC(=O)[C@@H]1C[C@@H]2C(=O)N[C@@H](CCCCN)C(=O)N2[C@@H]1c1ccc(O)cc1`
Reply: Condition not met

Task item: Could you please find out whether `C=CC[C@]1(C(=O)N2CCOCC2)N=C(c2ccc(OCCCO)cc2)O[C@H]1c1ccccc1N=[N+]=[N-]` has composite z-score that meets 0.2 or exceeds it?
Reply: Condition met
